tested on: 786-0 renal; test: NCI tumour cell line growth inhibition, 48 h
Exercise: for every item that follows, state its recorded TGI.

# count of solved cases: 4
compound=COc1ccc2c(c1)C(=O)c1c-2n(CCCN(C)C)c(=O)c2cc([N+](=O)[O-])ccc12 data_value="< 0.01 µM"
compound=CC#COS(=O)(=O)c1ccc(C)cc1 data_value="> 100 µM"
compound="COc1cc(S(=O)(=O)Nc2ccc(-c3csc(N4C(=O)CSC4c4ccccc4O)n3)cc2)ccc1Cl (stereo not given)" data_value="> 100 µM"
compound="CC(=O)OCC1OC(N=[N+]=[N-])C(OC(C)=O)C(OC(C)=O)C1OC1OC(COC(C)=O)C(OC(C)=O)C(OC(C)=O)C1OC(C)=O (stereo not given)" data_value="> 100 µM"

Now look at this entry.
Notebook: COC1/C(=C\C(C)=O)c2ccccc2N1C(C)=O (stereo not given) , TGI read as > 100 µM
